A short record of IC50 observed with MC5-R (Homo sapiens, UniProt P33032) follows.
Sequence (P33032 whole entry): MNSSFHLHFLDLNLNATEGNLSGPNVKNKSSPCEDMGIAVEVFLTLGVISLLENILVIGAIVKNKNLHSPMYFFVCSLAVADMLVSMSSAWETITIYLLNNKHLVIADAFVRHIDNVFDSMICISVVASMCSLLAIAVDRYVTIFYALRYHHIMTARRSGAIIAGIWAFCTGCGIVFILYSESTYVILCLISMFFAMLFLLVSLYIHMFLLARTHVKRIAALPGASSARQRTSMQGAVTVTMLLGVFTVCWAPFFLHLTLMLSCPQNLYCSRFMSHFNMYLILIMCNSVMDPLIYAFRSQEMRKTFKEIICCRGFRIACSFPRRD
The reply should consist of the numeric value with the unit placed after it.

Here's what some known entries look like.
# Molecule, Measured property, Experimental result
measured = [
    ("COc1ccccc1Nc1nc(-c2ccc(C)cc2)[n+](-c2ccccc2OC)s1", "IC50", "246 nM"),
    ("COc1ccccc1-c1nc(Nc2ccccc2)s[n+]1-c1ccccc1OC.[Br-]", "IC50", "154 nM"),
    ("COc1ccccc1-c1nc(Nc2ccccc2Cl)s[n+]1-c1ccccc1OC", "IC50", "138 nM"),
]

Data request: Fill in: IC50 of COc1ccccc1Nc1nc(-c2ccccc2OC)[n+](-c2ccccc2OC)s1 is ___
Data returned: 317 nM

----------
Target: melanocortin MC-4 receptor (Homo sapiens)
Construct: purchased Receptor Biology Inc
Test: MC-4 receptor binding (Filtration)
Settings: Filtration; read-out: IC50 MC-4 (μM) (Filtration)
Measured property: IC50 (µM)
Respond numerically; units are µM and should not be typed.

# Molecule, IC50 [µM]
records = [
    ("Cc1ccc(Nc2nc(-c3ccccc3)[n+](-c3ccc(Cl)cc3)s2)cc1", 6),
    ("COc1ccc(Nc2nc(-c3ccccc3)[n+](-c3ccc(C)cc3)s2)cc1", 1.1),
    ("Cc1ccccc1-[n+]1sc(Nc2ccc(Cl)cc2)nc1-c1ccccc1", 3.4),
    ("Cc1ccccc1-[n+]1sc(Nc2ccccc2Cl)nc1-c1ccccc1", 5.6),
    ("Cc1ccc(-[n+]2sc(Nc3ccccc3C)nc2-c2ccccc2)cc1", 1.3),
]

Data request: Query for melanocortin MC-4 receptor (Homo sapiens): what IC50 does the record show for COc1ccccc1Nc1nc(-c2ccccc2)[n+](-c2ccc(Cl)cc2)s1 ?
Data returned: 7.7

Data request: Here is the next compound: COc1ccc(Nc2nc(-c3ccccc3)[n+](-c3ccc(Cl)cc3)s2)cc1
Data returned: 4.3

----------
Target: melanocortin MC-4 receptor (Homo sapiens)
Construct: purchased Receptor Biology Inc
Test: Melanocortin MC-4 Receptor Binding Assay (SPA)
Returns: string. Value is y if measured IC50 is below 100 nM, and n if it is greater than or equal to it.

Data request: Below 100 nM on IC50? Entry COc1ccc(Nc2nc(-c3ccccc3)[n+](-c3ccccc3OC)s2)cc1
Data returned: y

----------
// IC50 lookup, one value per entry
Biological target: melanocortin MC-4 receptor (Homo sapiens, UniProt P32245)
Construct: purchased Receptor Biology Inc
Sequence (P32245 whole entry): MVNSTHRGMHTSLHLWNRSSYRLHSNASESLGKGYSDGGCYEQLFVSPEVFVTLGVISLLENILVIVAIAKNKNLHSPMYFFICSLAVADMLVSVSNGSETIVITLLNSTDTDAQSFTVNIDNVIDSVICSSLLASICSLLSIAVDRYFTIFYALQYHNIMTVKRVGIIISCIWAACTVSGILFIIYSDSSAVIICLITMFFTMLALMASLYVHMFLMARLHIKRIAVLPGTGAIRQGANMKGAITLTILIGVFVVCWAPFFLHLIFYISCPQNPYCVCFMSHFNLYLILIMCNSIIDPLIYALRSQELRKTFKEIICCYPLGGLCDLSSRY
Experiment: Melanocortin MC-4 Receptor Binding Assay (SPA)
Respond numerically; units are nM and should not be typed.

Here's what some known entries look like.
# Molecule, System, Measured property, Experimental result
rows = [
    ("COc1ccccc1Nc1nc(-c2ccccc2)[n+](-c2ccccc2OC)s1", "melanocortin MC-4 receptor (Homo sapiens, UniProt P32245)", "IC50", 103),
    ("COc1ccccc1-[n+]1sc(Nc2ccc(C)cc2)nc1-c1ccc(C)cc1", "melanocortin MC-4 receptor (Homo sapiens, UniProt P32245)", "IC50", 110),
    ("COc1ccccc1-[n+]1sc(Nc2ccccc2)nc1-c1ccccc1", "melanocortin MC-4 receptor (Homo sapiens, UniProt P32245)", "IC50", 68),
]

Data request: Query for melanocortin MC-4 receptor (Homo sapiens, UniProt P32245): what IC50 does the record show for Cc1ccc(Nc2nc(-c3ccccc3)[n+](-c3ccccc3Cl)s2)cc1 ?
Data returned: 246

Data request: Here is the next molecule: Cc1ccc(CNc2nc(-c3ccccc3)[n+](-c3ccccc3)s2)cc1
Data returned: 1000
